# protocol text: Study 204953 Part 1A: single doses 50-250 mg API PiB with RTV, healthy subjects
# Format: in vivo, human
# measurement conditions: human, plasma, oral, single 100 mg API PiB, fasted, with ritonavir (2 days predosing), geometric mean (95% CI), read-out: AUC(0‐∞)
readout type: AUC (ng·h/mL)
Give bare numbers, in ng·h/mL.

Documented AUC of `CC(C)C1=C2[C@H]3CC[C@@H]4[C@@]5(C)CC[C@H](OC(=O)CC(C)(C)C(=O)O)C(C)(C)[C@@H]5CC[C@@]4(C)[C@]3(C)CC[C@@]2([C@@H](O)CN(CCN(C)C)Cc2ccc(Cl)cc2)CC1=O` : 846

----------
# protocol text: Study HMI116787: single ascending dose, food effect and RTV boosting, SDD PiB, healthy subjects
# Type: in vivo, human
# measurement conditions: human, plasma, oral; single 20 mg SDD PiB, fasted, without ritonavir, Study HMI116787; median (range); read-out: C24
readout type: concentration at 24 h (ng/mL)
Numbers only, in ng/mL.

Documented concentration at 24 h of `CC(C)C1=C2[C@H]3CC[C@@H]4[C@@]5(C)CC[C@H](OC(=O)CC(C)(C)C(=O)O)C(C)(C)[C@@H]5CC[C@@]4(C)[C@]3(C)CC[C@@]2([C@@H](O)CN(CCN(C)C)Cc2ccc(Cl)cc2)CC1=O` : 1.54

----------
# protocol text: Study 204953 Part 2: repeat dosing for 11 days with RTV QD or 200 mg BID unboosted
# Type: in vivo, human
# measurement conditions: human, plasma, oral, Study Day 11, 50 mg QD + RTV (PiB), τ = 24 hours, Study 204953; geometric mean (95% CI); read-out: AUC(0‐τ)
readout type: AUC
Remember to follow the number with its unit.

Documented AUC of CC(C)C1=C2[C@H]3CC[C@@H]4[C@@]5(C)CC[C@H](OC(=O)CC(C)(C)C(=O)O)C(C)(C)[C@@H]5CC[C@@]4(C)[C@]3(C)CC[C@@]2([C@@H](O)CN(CCN(C)C)Cc2ccc(Cl)cc2)CC1=O [GSK2838232] : 1090 ng·h/mL

----------
# protocol text: Study 204953 Part 2: repeat dosing for 11 days with RTV QD or 200 mg BID unboosted
# Format: in vivo, human
# measurement conditions: human, plasma, oral, Study Day 11, 200 mg QD + RTV (capsules), Study 204953; geometric mean (95% CI)
readout type: Cmax (ng/mL)
One number for each entry, in ng/mL.

Documented Cmax of CC(C)C1=C2[C@H]3CC[C@@H]4[C@@]5(C)CC[C@H](OC(=O)CC(C)(C)C(=O)O)C(C)(C)[C@@H]5CC[C@@]4(C)[C@]3(C)CC[C@@]2([C@@H](O)CN(CCN(C)C)Cc2ccc(Cl)cc2)CC1=O [GSK2838232] : 225

----------
# protocol text: Study 204953 Part 2: repeat dosing for 11 days with RTV QD or 200 mg BID unboosted
# Assay type: in vivo, human
# measurement conditions: human, plasma, oral, Study Day 11, 200 mg QD + RTV (capsules), Study 204953; median (range)
readout type: Tmax
Remember to follow the number with its unit.

Documented Tmax of CC(C)C1=C2[C@H]3CC[C@@H]4[C@@]5(C)CC[C@H](OC(=O)CC(C)(C)C(=O)O)C(C)(C)[C@@H]5CC[C@@]4(C)[C@]3(C)CC[C@@]2([C@@H](O)CN(CCN(C)C)Cc2ccc(Cl)cc2)CC1=O [GSK2838232] : 3.25 h
